# TARGET UNDER TEST: Luciferin 4-monooxygenase (Photinus pyralis) (UniProt P08659)
# Sequence (P08659 whole entry, looked up): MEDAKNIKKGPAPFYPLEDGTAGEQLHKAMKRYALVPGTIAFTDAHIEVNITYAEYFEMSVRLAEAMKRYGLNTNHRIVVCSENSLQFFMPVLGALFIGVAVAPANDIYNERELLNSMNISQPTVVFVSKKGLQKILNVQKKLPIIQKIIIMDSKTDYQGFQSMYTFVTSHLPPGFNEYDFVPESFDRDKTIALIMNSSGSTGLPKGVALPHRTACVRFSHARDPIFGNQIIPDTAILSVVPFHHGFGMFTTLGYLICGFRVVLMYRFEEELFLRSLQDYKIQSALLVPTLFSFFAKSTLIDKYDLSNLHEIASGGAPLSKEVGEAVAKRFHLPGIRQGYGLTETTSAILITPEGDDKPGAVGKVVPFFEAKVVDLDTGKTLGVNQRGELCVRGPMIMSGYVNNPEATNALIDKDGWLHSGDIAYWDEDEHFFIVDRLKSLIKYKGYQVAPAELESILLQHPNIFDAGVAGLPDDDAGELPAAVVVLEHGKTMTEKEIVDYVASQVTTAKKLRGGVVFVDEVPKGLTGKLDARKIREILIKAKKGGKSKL
# ASSAY REMARKS: Photinus pyralis luciferase translation or activity inhibitors, H4 neuroglioma cells, confirmatory dose response (AID 2458)
# COND: luciferase luminescence
Results filed as inconclusive are left out.
MEASUREMENT TYPE: pEC50
Numbers only, as −log10 of the molar value.

Item COc1ccc(O)c2c(=O)c3c(OC)cc4c(c3oc12)C1C=COC1O4 (stereo unspecified) was tested on Luciferin 4-monooxygenase (Photinus pyralis) (UniProt P08659); the reported pEC50 is 6.28

Origin of measurements: PubChem BioAssay AID2458
